The origin of these recorded values is patent US20120264685A1.

test: Stability in human plasma; format: in vitro ADME; settings: 2 μM, 37° C., 24 h
Where a SMILES comes first, the peptide text is derived from it. [ ]: non-standard residue; d: D form. ξ: configuration not given here. ξαMeBip(2'-Et,4'-OMe) = CCc1cc(OC)ccc1-c1ccc(CC(C)(N)C(=O)O)cc1; ξBip(2'-Et-4'-OMe) = CCc1cc(OC)ccc1-c1ccc(CC(N)C(=O)O)cc1; ξαMePhe(2,6-F2) = CC(N)(Cc1c(F)cccc1F)C(=O)O; ξαMe(hhPhe) = CC(N)(CCCc1ccccc1)C(=O)O; ξαMePhe(2-F) = CC(N)(Cc1ccccc1F)C(=O)O; ξhhPhe = NC(CCCc1ccccc1)C(=O)O; ξαMeD = CC(N)(CC(=O)O)C(=O)O; ξαMeP = CC1(C(=O)O)CCCN1; ξαMeS = CC(N)(CO)C(=O)O
QUANTITY_MEASURED: % degradation in 24 h when incubated with human plasma (%)
Respond numerically; units are % and should not be typed.

MOLECULE: CCc1cc(OC)ccc1-c1ccc(CC(C)(NC(=O)C(C)(CC(=O)O)NC(=O)[C@H](CO)NC(=O)[C@@H](NC(=O)[C@H](Cc2ccccc2)NC(=O)[C@@H](NC(=O)CNC(=O)[C@H](CCC(N)=O)NC(=O)[C@H](C)NC(=O)[C@H](Cc2c[nH]cn2)NC(=O)[C@@H](N)C(C)C)[C@@H](C)O)[C@@H](C)O)C(=O)NC(CCCc2ccccc2)C(N)=O)cc1 (some centres unmarked) [compound 58] (H-VHAQGTFTS[ξαMeD][ξαMeBip(2'-Et,4'-OMe)][ξhhPhe]-NH2)
OBSERVED_RESULT: 69
//
MOLECULE: CCc1cc(OC)ccc1-c1ccc(CC(C)(NC(=O)C(C)(CC(=O)O)NC(=O)[C@H](CO)NC(=O)[C@@H](NC(=O)[C@H](Cc2ccccc2)NC(=O)[C@@H](NC(=O)CNC(=O)[C@H](CCC(=O)O)NC(=O)C2(C)CCCN2C(=O)[C@H](Cc2c[nH]cn2)NC(=O)[C@@H](N)C(C)C)[C@@H](C)O)[C@@H](C)O)C(=O)NC(C)(CCCc2ccccc2)C(N)=O)cc1 (some centres unmarked) [compound 188] (H-VH[ξαMeP]EGTFTS[ξαMeD][ξαMeBip(2'-Et,4'-OMe)][ξαMe(hhPhe)]-NH2)
OBSERVED_RESULT: 00
//
MOLECULE: CCc1cc(OC)ccc1-c1ccc(CC(NC(=O)[C@H](CC(=O)O)NC(=O)[C@H](CO)NC(=O)[C@@H](NC(=O)[C@H](Cc2ccccc2)NC(=O)[C@@H](NC(=O)CNC(=O)[C@H](CCC(N)=O)NC(=O)[C@H](CO)NC(=O)[C@H](Cc2c[nH]cn2)NC(=O)[C@@H](N)C(C)C)[C@@H](C)O)[C@@H](C)O)C(=O)NC(C)(CCCc2ccccc2)C(N)=O)cc1 (some centres unmarked) [compound 81] (H-VHSQGTFTSD[ξBip(2'-Et-4'-OMe)][ξαMe(hhPhe)]-NH2)
OBSERVED_RESULT: 71
//
MOLECULE: CCc1cc(OC)ccc1-c1ccc(CC(NC(=O)[C@H](CC(=O)O)NC(=O)[C@H](CO)NC(=O)[C@@H](NC(=O)C(C)(Cc2ccccc2F)NC(=O)[C@@H](NC(=O)CNC(=O)[C@H](CCC(N)=O)NC(=O)[C@H](C)NC(=O)[C@H](Cc2c[nH]cn2)NC(=O)[C@@H](N)C(C)C)[C@@H](C)O)[C@@H](C)O)C(=O)NC(C)(CCCc2ccccc2)C(N)=O)cc1 (some centres unmarked) [compound 92] (H-VHAQGT[ξαMePhe(2-F)]TSD[ξBip(2'-Et-4'-OMe)][ξαMe(hhPhe)]-NH2)
OBSERVED_RESULT: 00

Next:
Prompt: Need % degradation in 24 h when incubated with human plasma, item CCc1cc(OC)ccc1-c1ccc(CC(C)(NC(=O)[C@H](CC(=O)O)NC(=O)C(C)(CO)NC(=O)[C@@H](NC(=O)C(C)(Cc2c(F)cccc2F)NC(=O)[C@@H](NC(=O)CNC(=O)[C@H](CCC(=O)O)NC(=O)[C@H](C)NC(=O)[C@H](Cc2c[nH]cn2)NC(=O)[C@@H](N)C(C)C)[C@@H](C)O)[C@@H](C)O)C(=O)NC(C)(CCCc2ccccc2)C(N)=O)cc1 (some centres unmarked) [compound 178] (H-VHAEGT[ξαMePhe(2,6-F2)]T[ξαMeS]D[ξαMeBip(2'-Et,4'-OMe)][ξαMe(hhPhe)]-NH2)
Response: 00
